# target-or-system: TbINO1 (Trypanosoma brucei brucei, UniProt Q5QQ46)
# Construct: Hexa-His (N); made in house; host or cells: E. coli BL21 Rosetta (DE3)
# Sequence (Q5QQ46 1-528): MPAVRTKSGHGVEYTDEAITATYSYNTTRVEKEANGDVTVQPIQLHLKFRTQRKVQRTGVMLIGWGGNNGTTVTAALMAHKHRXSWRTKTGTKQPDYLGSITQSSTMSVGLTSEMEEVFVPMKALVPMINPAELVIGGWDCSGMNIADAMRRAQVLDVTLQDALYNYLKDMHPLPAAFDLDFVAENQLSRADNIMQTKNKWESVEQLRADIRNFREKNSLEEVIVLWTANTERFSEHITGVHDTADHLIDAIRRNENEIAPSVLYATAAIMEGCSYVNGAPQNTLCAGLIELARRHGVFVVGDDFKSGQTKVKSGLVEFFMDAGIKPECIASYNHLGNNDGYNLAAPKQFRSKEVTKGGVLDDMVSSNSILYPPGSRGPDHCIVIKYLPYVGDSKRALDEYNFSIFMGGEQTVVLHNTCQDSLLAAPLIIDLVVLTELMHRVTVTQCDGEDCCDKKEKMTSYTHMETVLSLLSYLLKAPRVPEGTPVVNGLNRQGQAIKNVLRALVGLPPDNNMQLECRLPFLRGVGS
# test-description: biochemical
# Type: biochemical
measure-name: IC50

Known results for compounds:
{"columns": ["compound", "target-or-system", "IC50"],
 "data": [
  ["O=C[C@H](O)[C@@H](O)[C@@H](O)[C@H](O)COP(=O)(O)O [Galactose-6-P, galactose-6-phosphate]", "TbINO1 (Trypanosoma brucei brucei, UniProt Q5QQ46)", "> 10 mM"],
  ["O=P(O)(O)OC[C@H]1OC(O)C[C@@H](O)[C@@H]1O (stereo partly drawn) [2-Deoxyglucose-6-P]", "TbINO1 (Trypanosoma brucei brucei, UniProt Q5QQ46)", "4 mM"],
  ["O=C[C@@H](O)[C@@H](O)[C@H](O)[C@H](O)COP(=O)(O)O [Mannose-6-P, mannose-6-phosphate]", "TbINO1 (Trypanosoma brucei brucei, UniProt Q5QQ46)", "> 10 mM"],
  ["O=CC(O)CO (stereo not drawn) [Glyceraldehyde, glyceraldehyde]", "TbINO1 (Trypanosoma brucei brucei, UniProt Q5QQ46)", "> 10 mM"],
  ["CC(=O)C(=O)O [Pyruvate, pyruvate]", "TbINO1 (Trypanosoma brucei brucei, UniProt Q5QQ46)", "> 10 mM"]
]}

Problem: Which value of IC50 has been reported for O=CC[C@@H](O)[C@H](O)[C@H](O)CO [2-Deoxyglucose] in the records?
Result: > 10 mM

Problem: Try the compound O=P(O)(O)OC[C@H]1OC(O)[C@H](O)[C@@H](O)[C@@H]1F (stereo partly drawn) [4-F-Glucose-6-P, 4-fluoro-glucose-6-phospahte]
Result: > 10 mM

Problem: Try the compound O=P(O)(O)OC[C@H]1OC(O)[C@H](O)[C@@H](F)[C@@H]1O (stereo partly drawn) [3-F-Glucose-6-P, 3-fluoro-glucose-6-phospahte]
Result: 2.5 mM

Problem: Try the compound O=C(O)[C@H](O)[C@@H](O)[C@H](O)[C@H](O)COP(=O)(O)O [6-phosphogluconic acid]
Result: > 10 mM
